assay.notes: Tablet placed into 5 mL water and observed for 30 seconds for disintegration and dissolution
Type: physicochemical
protocol.conditions: compression pressure 70.2 MPa; 5 mL water, 30 seconds
attribute.measured: Disintegration Characteristics

>>> endpoint_value("Cn1c(=O)c2[nH]cnc2n(C)c1=O [Theophyline, reference compound]")
"No disintegration."
>>> endpoint_value("O=C(O)c1ccccc1O")
"No disintegration."
>>> endpoint_value("[Cl-].[Na+] [Sodium Chloride]")
"No disintegration."

====

molecules and their reported Tablet Strength
assay.notes: Tablet strength graded 1-5 by hand and by dropping the tablet
Type: physicochemical
attribute.measured: Tablet Strength

>>> endpoint_value("[Ca+2].[Cl-].[Cl-] [Calcium Chloride]")
4
>>> endpoint_value("CC(=O)[O-].CC(=O)[O-].[Ca+2] [Calcium Acetate]")
4
>>> endpoint_value("O=C([O-])[O-].[Ca+2] [Calcium Carbonate]")
2
>>> endpoint_value("CC(=O)[O-].CC(=O)[O-].[Zn+2] [Zinc Acetate]")
3

====

This section presents compounds with their documented Tablet Strength values.
assay.notes: Tablet strength graded 1-5 by hand and by dropping the tablet
Format: physicochemical
protocol.conditions: compression pressure 105 MPa
attribute.measured: Tablet Strength

>>> endpoint_value("NCC(=O)O [Glycine]")
2
>>> endpoint_value("O=P([O-])(O)O.O=P([O-])(O)O.[Ca+2] [Calcium Phosphate, Monobasic]")
3
>>> endpoint_value("O=C(O)c1ccccc1O [Salicylic Acid]")
2
>>> endpoint_value("OC[C@H]1O[C@@H]2O[C@H]3[C@H](O)[C@@H](O)[C@@H](O[C@H]4[C@H](O)[C@@H](O)[C@@H](O[C@H]5[C@H](O)[C@@H](O)[C@@H](O[C@H]6[C@H](O)[C@@H](O)[C@@H](O[C@H]7[C@H](O)[C@@H](O)[C@@H](O[C@H]8[C@H](O)[C@@H](O)[C@@H](O[C@H]1[C@H](O)[C@H]2O)O[C@@H]8CO)O[C@@H]7CO)O[C@@H]6CO)O[C@@H]5CO)O[C@@H]4CO)O[C@@H]3CO [Beta-Cyclodextrin]")
4
>>> endpoint_value("N[C@@H](CCC(=O)O)C(=O)O [Glutamic acid]")
3
>>> endpoint_value("[Cl-].[Na+] [Sodium Chloride]")
2
>>> endpoint_value("O=C1NS(=O)(=O)c2ccccc21.[Na] [Sodium Saccharin]")
2
>>> endpoint_value("CC(=O)Oc1ccccc1C(=O)O [Aspirin, reference compound]")
4

====

The molecules listed here are annotated with their Tablet Strength.
assay.notes: Tablet strength graded 1-5 by hand and by dropping the tablet
Format: physicochemical
Set-up: key: strength grade on a 1-5 scale
protocol.conditions: compression pressure 70.2 MPa
attribute.measured: Tablet Strength

>>> endpoint_value("O=P([O-])([O-])O.[Ca+2] [DITAB, Calcium Phosphate, Dibasic]")
4
>>> endpoint_value("O=C(O)c1ccccc1O")
2
>>> endpoint_value("OC[C@H]1O[C@@](CO)(O[C@H]2O[C@H](CO)[C@@H](O)[C@H](O)[C@H]2O)[C@@H](O)[C@@H]1O")
2
>>> endpoint_value("OC[C@H]1O[C@H](O[C@H]2[C@H](O)[C@@H](O)[C@H](O)O[C@@H]2CO)[C@H](O)[C@@H](O)[C@@H]1O")
3
>>> endpoint_value("CC(=O)Oc1ccccc1C(=O)O [Aspirin, reference compound]")
3
>>> endpoint_value("O.OC[C@H]1O[C@@H](O[C@H]2[C@H](O)[C@@H](O)C(O)O[C@@H]2CO)[C@H](O)[C@@H](O)[C@H]1O (some centres unmarked) [Lactose monohydrate]")
3
>>> endpoint_value("O=C1NS(=O)(=O)c2ccccc21.[Na] [Sodium Saccharin]")
2
>>> endpoint_value("CC(C)Cc1ccc(C(C)C(=O)O)cc1 (centres unmarked) [Ibuprofen, reference compound]")
3
>>> endpoint_value("OC[C@@H](O)[C@@H](O)[C@H](O)[C@H](O)CO")
2
>>> endpoint_value("Cn1c(=O)c2c(ncn2C)n(C)c1=O [Caffeine, reference compound]")
4
>>> endpoint_value("[Cl-].[Na+] [Sodium Chloride]")
2

====

assay.notes: Tablet strength graded 1-5 by hand and by dropping the tablet
Type: physicochemical
Parameters: key: strength grade on a 1-5 scale
protocol.conditions: compression pressure 35.1 MPa
attribute.measured: Tablet Strength

>>> endpoint_value("OC[C@H]1O[C@@H]2O[C@H]3[C@H](O)[C@@H](O)[C@@H](O[C@H]4[C@H](O)[C@@H](O)[C@@H](O[C@H]5[C@H](O)[C@@H](O)[C@@H](O[C@H]6[C@H](O)[C@@H](O)[C@@H](O[C@H]7[C@H](O)[C@@H](O)[C@@H](O[C@H]8[C@H](O)[C@@H](O)[C@@H](O[C@H]1[C@H](O)[C@H]2O)O[C@@H]8CO)O[C@@H]7CO)O[C@@H]6CO)O[C@@H]5CO)O[C@@H]4CO)O[C@@H]3CO [Beta-Cyclodextrin]")
4
>>> endpoint_value("O=C1NS(=O)(=O)c2ccccc21.[Na] [Sodium Saccharin]")
1
>>> endpoint_value("Cn1c(=O)c2c(ncn2C)n(C)c1=O [Caffeine, reference compound]")
3
>>> endpoint_value("O=C(O)c1ccccc1O [Salicylic Acid]")
1
>>> endpoint_value("CC(=O)Oc1ccccc1C(=O)O [Aspirin, reference compound]")
2

====

assay.notes: Tablet placed into 5 mL water and observed for 30 seconds for disintegration and dissolution
Format: physicochemical
protocol.conditions: summary of the materials survey, pressure not stated
attribute.measured: Disintegration (screening summary)

>>> endpoint_value("N[C@@H](CCC(=O)O)C(=O)O")
"fast disintegration"
>>> endpoint_value("O=P([O-])([O-])O.[Ca+2] [DITAB, Calcium Phosphate, Dibasic]")
"fast disintegration"
>>> endpoint_value("OC[C@H]1O[C@H](O[C@H]2[C@H](O)[C@@H](O)[C@H](O)O[C@@H]2CO)[C@H](O)[C@@H](O)[C@@H]1O")
"fast disintegration"
>>> endpoint_value("O=C1NS(=O)(=O)c2ccccc21.[Na] [Sodium Saccharin]")
"fast disintegration"
>>> endpoint_value("NCC(=O)O")
"fast disintegration"
